Data credit: ChEMBL document CHEMBL1949546

Test: Clearance in rat hepatocytes assessed per million cells
Assay type: ADME, cell-based, Hepatocyte
Settings: read-out: CLH
readoutName: hepatocyte CLint (µL/min/1e6 cells)

1) Cc1cc(Cl)cc2c(C(O)c3cccnc3)c3c(C)n[nH]c3nc12 (racemic) ... 26
2) Cc1ncc(C(O)c2c3cc(Cl)cc(C)c3nc3[nH]nc(C)c23)cn1 (racemic) ... 11

###

Experiment: Drug uptake in rat brain after 6 hrs
Assay type: ADME, tissue-based
Details: read-out: Drug uptake
readoutName: concentration at 6 h (ng/g)

1) Cc1cc(Cl)cc2c(C(O)c3cccnc3)c3c(C)n[nH]c3nc12 (racemic) ... 115

###

Test: Clearance in dog hepatocytes assessed per million cells
Format: ADME, cell-based, Canis lupus familiaris, Hepatocyte
Conditions: read-out: CLH
readoutName: hepatocyte CLint (µL/min/1e6 cells)

1) Cc1ncc(C(O)c2c3cc(Cl)cc(C)c3nc3[nH]nc(C)c23)cn1 (racemic) ... 7

###

Assay: Clearance in monkey hepatocytes assessed per million cells
Assay type: ADME, cell-based, Macaca mulatta, Hepatocyte
Conditions: rhesus monkey, read-out: CLH
In plain terms, low hepatocyte CLint, meaning strictly below 60 µL/min/1e6 cells, gives Y, and everything else gives N.

1) Cc1ncc(C(O)c2c3cc(Cl)cc(C)c3nc3[nH]nc(C)c23)cn1 (racemic) ... Y
2) Cc1cc(Cl)cc2c(C(O)c3ccncc3)c3c(C)n[nH]c3nc12 (racemic) ... Y
3) COc1cc(C)c2nc3[nH]nc(C)c3c(C(C#N)c3ccccc3)c2c1 (racemic) ... N
4) COc1cc(C)c2nc3[nH]nc(C)c3c(C(O)c3ccncc3)c2c1 (single isomer, unassigned; (+)) ... N
5) COc1cc(C)c2nc3[nH]nc(C)c3c(C(O)c3ccc(F)cc3)c2c1 (racemic) ... N
6) COc1cc(C)c2nc3[nH]nc(C)c3c(C(F)c3ccncc3)c2c1 (single isomer, unassigned; (-)) ... N
7) Cc1cc(Cl)cc2c(C(O)c3cccnc3)c3c(C)n[nH]c3nc12 (racemic) ... Y
8) COc1cc(C)c2nc3[nH]nc(C)c3c(C(O)c3cncn3C)c2c1 (racemic) ... Y

###

Experiment: Clearance in monkey hepatocytes assessed per million cells
Assay type: ADME, cell-based, Macaca mulatta, Hepatocyte
Settings: rhesus monkey, read-out: CLH
Quick list: hepatocyte CLint per entry.
readoutName: hepatocyte CLint

1) COc1cc(C)c2nc3[nH]nc(C)c3c(C(=O)c3ccncc3)c2c1 ... 66 µL/min/1e6 cells
2) COc1cc(C)c2nc3[nH]nc(C)c3c(C(O)c3cccnc3)c2c1 (racemic) ... 67 µL/min/1e6 cells
3) COc1cc(C)c2nc3[nH]nc(C)c3c(C(O)c3ccnc(F)c3)c2c1 (racemic) ... 66 µL/min/1e6 cells
4) COc1cc(C)c2nc3[nH]nc(C)c3c(C(C)(O)c3ccncc3)c2c1 (racemic) ... 66 µL/min/1e6 cells
5) COc1cc(C)c2nc3[nH]nc(C)c3c(C(O)c3ncco3)c2c1 (racemic) ... 63 µL/min/1e6 cells
6) Cc1cc(Cl)cc2c(C(O)c3ccnc(F)c3)c3c(C)n[nH]c3nc12 (racemic) ... 37 µL/min/1e6 cells

###

Test: Plasma concentration in rat after 6 hrs
Type: ADME
readoutName: concentration at 6 h

1. Cc1cc(Cl)cc2c(C(O)c3cccnc3)c3c(C)n[nH]c3nc12 (racemic) ... 810 nM
2. Cc1ncc(C(O)c2c3cc(Cl)cc(C)c3nc3[nH]nc(C)c23)cn1 (racemic) ... 220 nM
